Test system: RXF 393
assay_details: NCI tumour cell line growth inhibition, 48 h
Calls of active or inactive are those of the source. Rule as the data show it: active = GI50 up to about 1.1 µM and inactive = higher.
experimental_endpoint: GI50

Solved entries (count: 3):
O=c1c2cc3c(cc2c2cccc4c2n1CCC4)OCO3 | 28.4 µM (inactive)
CCCCCC(/C=C/C1CCC(=O)C1CC#C[Si](C)(C)C)OCc1ccccc1 (centres undefined) | 13.9 µM (inactive)
COC[C@@H](/N=C/C(C)(C)C)C(C)C | > 100 µM (inactive)

Which value of GI50 has been reported for Oc1ccc2c(c1)CC[N+]1=C2CCC2CCCC21 (centres undefined) [QUINDONIUM BROMIDE] in the records?
> 100 µM (inactive)

Which value of GI50 has been reported for `CCOS(=O)(=O)c1ccc(-c2c3nc(c(-c4ccc(S(=O)(=O)OCC)cc4)c4ccc([nH]4)c(-c4ccc(S(=O)(=O)OCC)cc4)c4nc(c(-c5ccc(S(=O)(=O)OCC)cc5)c5ccc2[nH]5)C=C4)C=C3)cc1` in the records?
17.2 µM (inactive)

Which value of GI50 has been reported for O=c1[nH]c(=O)n(C2CC(O)C(CO)O2)cc1C(OCC(F)(F)F)OCC(F)(F)F (centres undefined) in the records?
> 100 µM (inactive)

Which value of GI50 has been reported for `CC(=O)Oc1ccc2cc(Oc3ccc(Cl)c(Cl)c3)c(=O)oc2c1` in the records?
19.2 µM (inactive)

Which value of GI50 has been reported for `CCOC(=O)NC(NNc1ccc([N+](=O)[O-])cc1[N+](=O)[O-])(C(F)(F)F)C(F)(F)F` in the records?
27.8 µM (inactive)

Which value of GI50 has been reported for `COc1ccc(N2CCN(Cc3c(C(C)=O)[n+]([O-])c4ccccc4[n+]3[O-])CC2)cc1` in the records?
17 µM (inactive)

Which value of GI50 has been reported for `CN(CCCN(C)CCc1ccc(Cl)c(Cl)c1)CCCN1CCCC1` in the records?
1.61 µM (inactive)

Which value of GI50 has been reported for `c1ccc([P+](CCCCCCCC[P+](c2ccccc2)(c2ccccc2)c2ccccc2)(c2ccccc2)c2ccccc2)cc1` in the records?
31.6 µM (inactive)

Which value of GI50 has been reported for C/C=C/C(C/C=C(\C)CO[Si](C)(C)C(C)(C)C)O[Si](C)(C)C(C)(C)C (centres undefined) in the records?
> 100 µM (inactive)

Which value of GI50 has been reported for CC(=O)Oc1ccccc1C(=O)Nc1ncc([N+](=O)[O-])s1 [NITAZOXANIDE] in the records?
4.42 µM (inactive)

Which value of GI50 has been reported for `N#CCCN(CCC#N)c1ccc(/C=N\c2nc(-c3ccccc3)cs2)cc1` in the records?
39.7 µM (inactive)

Which value of GI50 has been reported for `c1ccc(CSC2(SCc3ccccc3)CCCC2)cc1` in the records?
> 10 µM (inactive)

Which value of GI50 has been reported for `O=C(CCc1nnc2s/c(=C\c3ccc(Cl)cc3Cl)c(=O)n12)Nc1cc(Cl)c(Cl)cc1Cl` in the records?
> 10 µM (inactive)

Which value of GI50 has been reported for `COc1ccc(N2C(=O)/C(=C/c3ccc(N(CCC#N)CCC#N)cc3C)N=C2c2cc([N+](=O)[O-])ccc2Cl)cc1` in the records?
4.61 µM (inactive)

Which value of GI50 has been reported for `O=C(NCCN1CCCCC1)c1cccc(I)c1` in the records?
> 100 µM (inactive)

Which value of GI50 has been reported for `COC(=O)c1scc(N)c1-n1ccc(=O)[nH]c1=O` in the records?
> 100 µM (inactive)

Which value of GI50 has been reported for COC(=O)C(NC(=O)C12CCC(C)(C(=O)O1)C2(C)C)c1cc(C(C)(C)C)c(O)c(C(C)(C)C)c1 (centres undefined) in the records?
83.2 µM (inactive)

Which value of GI50 has been reported for `O=c1cc(N2CCCC2)[nH]c(=O)n1-c1ccc(F)cc1` in the records?
> 100 µM (inactive)

Which value of GI50 has been reported for `S=C1SC(c2ccc(Cl)cc2)(c2ccc(Cl)cc2)c2ccccc21` in the records?
56.9 µM (inactive)

Which value of GI50 has been reported for `Cc1cc(Cc2c(F)c(F)c(Cc3cc(C)no3)c(F)c2F)on1` in the records?
33 µM (inactive)

Which value of GI50 has been reported for `COc1cc(O)c(C(=O)CC(C)=O)c(OC)c1` in the records?
> 100 µM (inactive)

###

Tested on: SW-620
assay_details: NCI tumour cell line growth inhibition, 48 h
Activity calls are given as the source filed them. Rule as the data show it: active = GI50 up to about 1.1 µM and inactive = higher. Where a SMILES comes first, the peptide text is derived from it. [ ]: non-standard residue; d: D form. The star is where a group is joined. Cbz = O=C(OCc1ccccc1)*; Aib = CC(C)(N)C(=O)O
# valid calls are T for active, F for inactive; nothing else

Take a look at these entries with their results.
COC(=O)C1CCC(=O)N1C(c1cc(OC)c(OC)c(OC)c1)c1cccc2ccccc12 (stereo not given) | F
Cc1cc(CC(O)c2ccc(Cl)c(Cl)c2)nc(O)n1 (stereo not given) | F
Oc1ccc2ccccc2c1/N=N\c1cccc2ccccc12 | F
CCC(=O)Nc1ccc(NS(=O)(=O)c2ccc(Cl)cc2)cc1 | F
Cc1nc(NC(=S)NC(=O)c2ccc(Cl)c(Cl)c2)sc1C(=O)/C=C/c1ccccc1[N+](=O)[O-] | F
CCOC(=O)c1cc2cc(N(C(C)=O)C(C)=O)ccc2s1 | F

Outcome logged for `Oc1cc(F)cc2cccnc12` in this assay:
T

Outcome logged for `C[C@H](CS)C(=O)N1c2ccccc2C[C@H]1C(=O)O` in this assay:
F

Outcome logged for CCC1(O)C(=O)OCc2c1cc1n(c2=O)Cc2cc3c(N)cccc3nc2-1 (stereo not given) in this assay:
T

Outcome logged for `C=C1C(=O)O[C@H]2[C@@H](O)[C@H](C)CCC[C@]3(C)O[C@H]3CC[C@@]3(C)O[C@@H]3C[C@@H]12` in this assay:
F

Outcome logged for `CCCCCCOc1ccc(NC2=C(Cl)C(=O)c3ncccc3C2=O)cc1` in this assay:
F

Outcome logged for `COc1ccc(/N=C2\C(=N/c3ccc(OC)cc3)N(c3ccccc3[N+](=O)[O-])C(=S)N2c2ccc(OC)cc2)cc1` in this assay:
F

Outcome logged for N#CC(Cc1ccccc1Br)N(CCC1=CCCCC1)C(c1ccccc1)c1ccccc1 (stereo not given) in this assay:
F

Outcome logged for CC(C)(NC(=O)C(C)(C)NC(=O)OCc1ccccc1)C(=O)O (Cbz-[Aib]-[Aib]-OH) in this assay:
F

Outcome logged for `CCCCC[C@@H]1OC(=O)[C@@]2(CC3c4ccccc4C2c2ccccc23)[C@H]1C(=O)OC` in this assay:
F

Outcome logged for O=C1CCCC2C(O)CCC[C@H]12 (stereo not given in full) in this assay:
F

Outcome logged for `O=[N+]([O-])c1ccc(-c2ccc(/C=N/n3c(S)nnc3-c3ccc(Cl)cc3)o2)cc1` in this assay:
F

Outcome logged for `C=C1C(=O)O[C@H]2[C@H]3O[C@@H](C[C@@H]12)[C@](C)(O)CC[C@@H]1O[C@@]1(C)CCC[C@H]3C` in this assay:
F

Outcome logged for `CN(C)/C=N/Cc1ccc2c(c1)OCO2` in this assay:
F

Outcome logged for `COc1c(Br)cc(CC(N)=O)c(O)c1Br` in this assay:
F

###

Test system: LOX IMVI
assay_details: NCI tumour cell line growth inhibition, 48 h
Structures can show the parent of a compound that is named as a salt. Calls of active or inactive are those of the source. No stated cut-off is given here; in the data, active = GI50 up to about 1.1 µM and inactive = higher.
Quick reference: GI50 of the listed items.

Solved entries (count: 5):
Cc1cc(-c2ccccc2)nc2oc(=O)n(C)c12 | > 100 µM (inactive)
CN1C(=O)c2cccc3cc([N+](=O)[O-])cc(c23)C1=O | > 10 µM (inactive)
C/C=C/C(C/C=C(\C)CO[Si](C)(C)C(C)(C)C)O[Si](C)(C)C(C)(C)C (stereo unspecified) | > 100 µM (inactive)
N#CC12CC3=C(N=C1NC1=C(CCc4ccccc41)C2)c1ccccc1CC3 (stereo unspecified) | 1.42 µM (inactive)
CO/N=C/c1c(-c2ccc(Cl)cc2)c(/C=N/OC)n2c1sc1ccccc12 | > 100 µM (inactive)

Which value of GI50 has been reported for CC/C(=C(\c1ccccc1)c1ccc(OCCN(C)C)cc1)c1ccccc1 [TAMOXIFEN CITRATE] in the records?
3.99 µM (inactive)

Which value of GI50 has been reported for `O=S(O)CCCSSCCCCSSCCCS(=O)O` in the records?
> 100 µM (inactive)

Which value of GI50 has been reported for `COc1ccc(/C(C#N)=C/c2ccc(OC)c(OC)c2)cc1` in the records?
> 100 µM (inactive)

Which value of GI50 has been reported for `C/C(CC(=O)Nc1cc(C)ccc1C)=N/N=C(N)N` in the records?
> 100 µM (inactive)

Which value of GI50 has been reported for `CNC(=O)N(CCC#N)CCN(C(=O)N(C)C)c1ccccc1` in the records?
> 100 µM (inactive)

Which value of GI50 has been reported for NC(CSS(=O)(=O)c1ccccc1)C(=O)O (stereo unspecified) in the records?
> 10 µM (inactive)
